Reference for the values: the supplement of paper PMC10307832

Parameter: relative viability. Scope: all listed entries.
- System: LU99A
- procedure.details: relative viability (nuclei count vs DMSO), 5 days (fraction); higher = more cells survive
- experimental.context: first compound 0.5 µM
value.kind: relative viability

molecule="Nc1ccn([C@@H]2O[C@H](CO)[C@@H](O)[C@@H]2O)c(=O)n1 [Cytarabine] + N=C(N)NC(=N)NCCc1ccccc1 [Phenformin] (partner 250 µM)" experimental_value=0.808
molecule="Nc1ccn([C@@H]2O[C@H](CO)[C@@H](O)[C@@H]2O)c(=O)n1 [Cytarabine] + Nc1ncn([C@H]2C[C@H](O)[C@@H](CO)O2)c(=O)n1 [Decitabine] (partner 2 µM)" experimental_value=0.823
molecule="COc1cc2nccc(Oc3ccc(NC(=O)Nc4cc(C)on4)c(Cl)c3)c2cc1OC [Tivozanib] + CC(=O)Nc1cccc(-n2c(=O)n(C3CC3)c(=O)c3c(Nc4ccc(I)cc4F)n(C)c(=O)c(C)c32)c1 [Trametinib] (partner 0.02 µM)" experimental_value=0.563
molecule="COc1cc2nccc(Oc3ccc(NC(=O)Nc4cc(C)on4)c(Cl)c3)c2cc1OC [Tivozanib] + Nc1ncn([C@H]2C[C@H](O)[C@@H](CO)O2)c(=O)n1 [Decitabine] (partner 2 µM)" experimental_value=0.758
molecule="COc1cc2nccc(Oc3ccc(NC(=O)Nc4cc(C)on4)c(Cl)c3)c2cc1OC [Tivozanib] + NC(=O)Nc1cc(-c2cccc(F)c2)sc1C(=O)N[C@H]1CCCNC1 [AZD7762] (partner 0.2 µM)" experimental_value=0.288

====

Parameter: relative viability. Scope: all listed entries.
- Tested on: NCI-H522
- procedure.details: relative viability (nuclei count vs DMSO), 5 days (fraction); higher = more cells survive
- experimental.context: first compound 0.253 µM
value.kind: relative viability

compound="O=c1[nH]c2ccccc2n1C1CCN(CCCC(c2ccc(F)cc2)c2ccc(F)cc2)CC1 [Pimozide] + Nc1nc2[nH]cc(CCc3ccc(C(=O)N[C@@H](CCC(=O)O)C(=O)O)cc3)c2c(=O)[nH]1 [Pemetrexed] (partner 0.2 µM)" experimental_value=0.848
compound="O=c1[nH]c2ccccc2n1C1CCN(CCCC(c2ccc(F)cc2)c2ccc(F)cc2)CC1 [Pimozide] + COc1cccc2cc(-c3nc([C@H]4CC[C@H](C(=O)O)CC4)n4ncnc(N)c34)[nH]c12 [OSI-027] (partner 0.5 µM)" experimental_value=0.586
compound="Cc1cnc(-c2cnc(NCCNc3ccc(C#N)cn3)nc2-c2ccc(Cl)cc2Cl)[nH]1 + O=C(CCCCCCC(=O)Nc1ccccc1)NO [Vorinostat] (partner 1 µM)" experimental_value=0.947
compound="Cc1cnc(-c2cnc(NCCNc3ccc(C#N)cn3)nc2-c2ccc(Cl)cc2Cl)[nH]1 + Nc1nc2[nH]cc(CCc3ccc(C(=O)N[C@@H](CCC(=O)O)C(=O)O)cc3)c2c(=O)[nH]1 [Pemetrexed] (partner 0.2 µM)" experimental_value=1.03

====

- System: LCLC-97TM1
- procedure.details: relative viability (nuclei count vs DMSO), 5 days (fraction); higher = more cells survive
- experimental.context: first compound 0.5 µM
Parameter: relative viability. Scope: all listed entries.
value.kind: relative viability

compound="Nc1ccn([C@@H]2O[C@H](CO)[C@@H](O)[C@@H]2O)c(=O)n1 [Cytarabine] + Nc1ncn([C@H]2C[C@H](O)[C@@H](CO)O2)c(=O)n1 [Decitabine] (partner 2 µM)" value_kind="relative viability" experimental_value=0.111
compound="Nc1ccn([C@@H]2O[C@H](CO)[C@@H](O)[C@@H]2O)c(=O)n1 [Cytarabine] + N=C(N)NC(=N)NCCc1ccccc1 [Phenformin] (partner 250 µM)" value_kind="relative viability" experimental_value=0.168
compound="COc1cc2nccc(Oc3ccc(NC(=O)Nc4cc(C)on4)c(Cl)c3)c2cc1OC [Tivozanib] + CC(=O)Nc1cccc(-n2c(=O)n(C3CC3)c(=O)c3c(Nc4ccc(I)cc4F)n(C)c(=O)c(C)c32)c1 [Trametinib] (partner 0.02 µM)" value_kind="relative viability" experimental_value=0.273

====

- System: SW 900
- procedure.details: relative viability (nuclei count vs DMSO), 5 days (fraction); higher = more cells survive
- experimental.context: first compound 8 µM
value.kind: relative viability

compound="O=c1[nH]c2ccccc2n1C1CCN(CCCC(c2ccc(F)cc2)c2ccc(F)cc2)CC1 [Pimozide] + Cc1nc(Nc2ncc(C(=O)Nc3c(C)cccc3Cl)s2)cc(N2CCN(CCO)CC2)n1 [Dasatinib] (partner 0.075 µM)" value_kind="relative viability" experimental_value=0.567
compound="O=c1[nH]c2ccccc2n1C1CCN(CCCC(c2ccc(F)cc2)c2ccc(F)cc2)CC1 [Pimozide] + Nc1nc2[nH]cc(CCc3ccc(C(=O)N[C@@H](CCC(=O)O)C(=O)O)cc3)c2c(=O)[nH]1 [Pemetrexed] (partner 0.2 µM)" value_kind="relative viability" experimental_value=0.418

====

- System: CAL-12T
- procedure.details: relative viability (nuclei count vs DMSO), 5 days (fraction); higher = more cells survive
- experimental.context: first compound 50 µM
Parameter: relative viability. Scope: all listed entries.
value.kind: relative viability

compound="O=C(O)CCCCC(CCSCc1ccccc1)SCc1ccccc1 (configuration not stated) [CPI-613] + COc1cccc2cc(-c3nc([C@H]4CC[C@H](C(=O)O)CC4)n4ncnc(N)c34)[nH]c12 [OSI-027] (partner 0.5 µM)" experimental_value=0.593
compound="O=C(O)CCCCC(CCSCc1ccccc1)SCc1ccccc1 (configuration not stated) [CPI-613] + CC(C)C[C@H](NC(=O)[C@H](Cc1ccccc1)NC(=O)c1cnccn1)B(O)O [Bortezomib] (partner 0.002 µM)" experimental_value=0.758
compound="O=C(O)CCCCC(CCSCc1ccccc1)SCc1ccccc1 (configuration not stated) [CPI-613] + C[C@]1(O)C[C@@H](c2nc(-c3ccc4ccc(-c5ccccc5)nc4c3)c3c(N)nccn32)C1 [Linsitinib] (partner 1 µM)" experimental_value=0.561
compound="O=C(O)CCCCC(CCSCc1ccccc1)SCc1ccccc1 (configuration not stated) [CPI-613] + CS(=O)(=O)N1CCN(Cc2cc3nc(-c4cccc5[nH]ncc45)nc(N4CCOCC4)c3s2)CC1 [Pictilisib] (partner 1 µM)" experimental_value=0.453
compound="O=C(O)CCCCC(CCSCc1ccccc1)SCc1ccccc1 (configuration not stated) [CPI-613] + O=C(CCCCCCC(=O)Nc1ccccc1)NO [Vorinostat] (partner 1 µM)" experimental_value=0.708
compound="O=C(O)CCCCC(CCSCc1ccccc1)SCc1ccccc1 (configuration not stated) [CPI-613] + CC(=O)Nc1cccc(-n2c(=O)n(C3CC3)c(=O)c3c(Nc4ccc(I)cc4F)n(C)c(=O)c(C)c32)c1 [Trametinib] (partner 0.02 µM)" experimental_value=0.325
compound="O=C(O)CCCCC(CCSCc1ccccc1)SCc1ccccc1 (configuration not stated) [CPI-613] + Cc1nc(NC(=O)N2CCC[C@H]2C(N)=O)sc1-c1ccnc(C(C)(C)C(F)(F)F)c1 [Alpelisib] (partner 2 µM)" experimental_value=1.14

====

- Test system: NCI-H2009
- procedure.details: relative viability (nuclei count vs DMSO), 5 days (fraction); higher = more cells survive
- experimental.context: first compound 0.8 µM
Parameter: relative viability. Scope: all listed entries.
value.kind: relative viability

molecule="O=c1[nH]c2ccccc2n1C1CCN(CCCC(c2ccc(F)cc2)c2ccc(F)cc2)CC1 [Pimozide] + Cc1nc(NC(=O)N2CCC[C@H]2C(N)=O)sc1-c1ccnc(C(C)(C)C(F)(F)F)c1 [Alpelisib] (partner 2 µM)" experimental_value=1.14
molecule="Cc1cnc(-c2cnc(NCCNc3ccc(C#N)cn3)nc2-c2ccc(Cl)cc2Cl)[nH]1 + O=C(CCCCCCC(=O)Nc1ccccc1)NO [Vorinostat] (partner 1 µM)" experimental_value=0.659
molecule="O=c1[nH]c2ccccc2n1C1CCN(CCCC(c2ccc(F)cc2)c2ccc(F)cc2)CC1 [Pimozide] + CC(=O)Nc1cccc(-n2c(=O)n(C3CC3)c(=O)c3c(Nc4ccc(I)cc4F)n(C)c(=O)c(C)c32)c1 [Trametinib] (partner 0.02 µM)" experimental_value=0.284
molecule="O=c1[nH]c2ccccc2n1C1CCN(CCCC(c2ccc(F)cc2)c2ccc(F)cc2)CC1 [Pimozide] + CS(=O)(=O)N1CCN(Cc2cc3nc(-c4cccc5[nH]ncc45)nc(N4CCOCC4)c3s2)CC1 [Pictilisib] (partner 1 µM)" experimental_value=0.786
molecule="Cc1cnc(-c2cnc(NCCNc3ccc(C#N)cn3)nc2-c2ccc(Cl)cc2Cl)[nH]1 + N=C(N)NC(=N)NCCc1ccccc1 [Phenformin] (partner 250 µM)" experimental_value=0.489
molecule="O=c1[nH]c2ccccc2n1C1CCN(CCCC(c2ccc(F)cc2)c2ccc(F)cc2)CC1 [Pimozide] + Cc1nc(Nc2ncc(C(=O)Nc3c(C)cccc3Cl)s2)cc(N2CCN(CCO)CC2)n1 [Dasatinib] (partner 0.075 µM)" experimental_value=0.328
molecule="O=c1[nH]c2ccccc2n1C1CCN(CCCC(c2ccc(F)cc2)c2ccc(F)cc2)CC1 [Pimozide] + CC(=O)c1c(C)c2cnc(Nc3ccc(N4CCNCC4)cn3)nc2n(C2CCCC2)c1=O [Palbociclib] (partner 0.5 µM)" experimental_value=0.178
molecule="Cc1cnc(-c2cnc(NCCNc3ccc(C#N)cn3)nc2-c2ccc(Cl)cc2Cl)[nH]1 + O=C(c1cc(Cc2n[nH]c(=O)c3ccccc23)ccc1F)N1CCN(C(=O)C2CC2)CC1 [Olaparib] (partner 8 µM)" experimental_value=0.697
molecule="Cc1cnc(-c2cnc(NCCNc3ccc(C#N)cn3)nc2-c2ccc(Cl)cc2Cl)[nH]1 + C[C@]1(O)C[C@@H](c2nc(-c3ccc4ccc(-c5ccccc5)nc4c3)c3c(N)nccn32)C1 [Linsitinib] (partner 1 µM)" experimental_value=1.23
